# Experimental System: Tyrosine-protein phosphatase non-receptor type 1 (Homo sapiens) (UniProt P18031)
# Sequence (P18031 whole entry): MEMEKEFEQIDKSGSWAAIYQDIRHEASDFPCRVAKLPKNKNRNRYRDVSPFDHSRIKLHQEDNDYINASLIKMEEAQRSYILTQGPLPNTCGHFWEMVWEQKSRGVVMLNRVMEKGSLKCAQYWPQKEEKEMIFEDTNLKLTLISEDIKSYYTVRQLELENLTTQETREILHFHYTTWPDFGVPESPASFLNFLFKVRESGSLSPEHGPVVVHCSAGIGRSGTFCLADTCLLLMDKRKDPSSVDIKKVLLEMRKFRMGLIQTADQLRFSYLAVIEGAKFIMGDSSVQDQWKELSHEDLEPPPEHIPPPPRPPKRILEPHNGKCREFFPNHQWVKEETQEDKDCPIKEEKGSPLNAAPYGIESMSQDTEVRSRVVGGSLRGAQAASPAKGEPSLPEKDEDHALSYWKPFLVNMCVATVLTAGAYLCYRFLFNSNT
# Protocol Details: Compound was tested for inhibition of Protein-tyrosine phosphatase 1B at a concentration of 10 uM in fluorometric assay using DiFMUP
Measured Quantity: inhibition (%)

INSERT INTO measurements (compound, scale_unit, value_reported) VALUES
  ('CC(Cn1c(=O)n2n(c1=O)C(C(=O)NC(Cc1ccc3sccc(=O)c3c1)C(=O)O)C=CC2CCCC(=O)O)c1ccccc1 (centres undefined)', '%', 55);

P. O=C(O)CCCC1C=CC(C(=O)NC(Cc2ccc3sccc(=O)c3c2)C(=O)O)n2c(=O)n(CC3CCCCC3)c(=O)n21 (centres undefined)
Q. O=C(O)CCCC1C=CC(C(=O)NC(Cc2ccc3sccc(=O)c3c2)C(=O)O)n2c(=O)n(Cc3cc(F)ccc3F)c(=O)n21 (centres undefined)
R. O=C(O)CCCC1C=CC(C(=O)NC(Cc2ccc3sccc(=O)c3c2)C(=O)O)n2c(=O)n(-c3ccc(Oc4ccccc4)cc3)c(=O)n21 (centres undefined)
Parameters: sort_field (inhibition), sort_dir (desc). Write the labels in rank order as requested.
R, P, Q
(R: 75%, P: 40%, Q: 0%)

----------
# Experimental System: Tyrosine-protein phosphatase non-receptor type 2 (Homo sapiens) (UniProt P17706)
# Sequence (P17706 whole entry): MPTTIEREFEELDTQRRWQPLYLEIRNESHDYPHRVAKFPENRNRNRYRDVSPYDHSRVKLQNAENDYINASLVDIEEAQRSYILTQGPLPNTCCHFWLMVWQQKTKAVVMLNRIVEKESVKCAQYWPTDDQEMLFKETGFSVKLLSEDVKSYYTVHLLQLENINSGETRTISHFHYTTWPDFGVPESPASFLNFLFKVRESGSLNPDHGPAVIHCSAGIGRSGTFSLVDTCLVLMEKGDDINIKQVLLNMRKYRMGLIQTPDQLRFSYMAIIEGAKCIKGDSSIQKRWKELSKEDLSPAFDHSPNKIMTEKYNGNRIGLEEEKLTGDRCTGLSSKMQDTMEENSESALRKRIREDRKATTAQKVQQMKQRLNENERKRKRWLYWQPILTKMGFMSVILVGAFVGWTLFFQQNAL
# Protocol Details: Compound was tested for inhibition of T-cell protein tyrosine phosphatase TC-PTP at a concentration of 10 uM in fluorometric assay using DiFMUP
Measured Quantity: inhibition (%)

INSERT INTO assay_data (compound, measured_quantity, value_reported) VALUES
  ('O=C(O)CCCC1C=CC(C(=O)NC(Cc2ccc3sccc(=O)c3c2)C(=O)O)n2c(=O)n(-c3ccc(Oc4ccccc4)cc3)c(=O)n21 (centres undefined)', 'inhibition', 85);

I. O=C(O)CCCC1C=CC(C(=O)NC(Cc2ccc3sccc(=O)c3c2)C(=O)O)n2c(=O)n(Cc3cc(F)ccc3F)c(=O)n21 (centres undefined)
II. O=C(O)CCCC1C=CC(C(=O)NC(Cc2ccc3sccc(=O)c3c2)C(=O)O)n2c(=O)n(CC3CCCCC3)c(=O)n21 (centres undefined)
III. CC(Cn1c(=O)n2n(c1=O)C(C(=O)NC(Cc1ccc3sccc(=O)c3c1)C(=O)O)C=CC2CCCC(=O)O)c1ccccc1 (centres undefined)
Parameters: sort_field (inhibition), sort_dir (desc). Write the labels in rank order as requested.
I, III, II
(I: 85%, III: 20%, II: 10%)

----------
# Experimental System: Receptor-type tyrosine-protein phosphatase C (CD45) (Homo sapiens) (UniProt P08575)
# Sequence (P08575 whole entry, looked up): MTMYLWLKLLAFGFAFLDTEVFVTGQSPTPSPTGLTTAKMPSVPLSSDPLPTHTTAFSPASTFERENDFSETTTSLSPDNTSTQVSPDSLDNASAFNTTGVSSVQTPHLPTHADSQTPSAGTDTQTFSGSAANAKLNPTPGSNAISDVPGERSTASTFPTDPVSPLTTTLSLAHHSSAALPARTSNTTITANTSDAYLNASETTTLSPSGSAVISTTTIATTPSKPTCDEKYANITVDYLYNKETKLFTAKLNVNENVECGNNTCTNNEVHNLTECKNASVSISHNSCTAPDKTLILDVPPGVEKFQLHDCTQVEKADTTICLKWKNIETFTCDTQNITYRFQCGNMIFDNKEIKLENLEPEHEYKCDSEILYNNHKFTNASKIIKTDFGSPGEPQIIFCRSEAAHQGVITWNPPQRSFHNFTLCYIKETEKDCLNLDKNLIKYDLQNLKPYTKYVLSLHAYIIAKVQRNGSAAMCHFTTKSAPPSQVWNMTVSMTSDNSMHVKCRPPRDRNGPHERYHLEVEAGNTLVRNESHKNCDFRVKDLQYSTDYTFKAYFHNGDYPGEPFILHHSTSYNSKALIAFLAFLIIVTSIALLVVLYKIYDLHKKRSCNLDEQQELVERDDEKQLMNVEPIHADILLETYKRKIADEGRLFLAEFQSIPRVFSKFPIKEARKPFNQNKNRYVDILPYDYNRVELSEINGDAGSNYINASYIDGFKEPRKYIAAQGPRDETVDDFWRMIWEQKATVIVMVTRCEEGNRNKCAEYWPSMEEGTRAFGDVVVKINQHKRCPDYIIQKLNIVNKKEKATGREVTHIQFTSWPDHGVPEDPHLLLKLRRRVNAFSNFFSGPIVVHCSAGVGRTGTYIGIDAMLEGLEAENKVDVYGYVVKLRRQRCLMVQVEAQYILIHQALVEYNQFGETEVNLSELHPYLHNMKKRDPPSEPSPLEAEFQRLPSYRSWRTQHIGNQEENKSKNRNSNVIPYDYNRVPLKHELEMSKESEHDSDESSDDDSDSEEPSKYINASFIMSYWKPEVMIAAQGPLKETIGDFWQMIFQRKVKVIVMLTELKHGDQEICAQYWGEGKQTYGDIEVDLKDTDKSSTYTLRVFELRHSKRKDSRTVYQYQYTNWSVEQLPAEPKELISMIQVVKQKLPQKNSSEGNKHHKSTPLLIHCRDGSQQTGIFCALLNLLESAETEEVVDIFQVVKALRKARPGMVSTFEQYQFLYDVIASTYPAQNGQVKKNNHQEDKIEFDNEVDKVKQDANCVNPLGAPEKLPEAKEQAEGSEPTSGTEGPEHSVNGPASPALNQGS
# Protocol Details: Compound was tested for inhibition of CD45 tyrosine phosphatase at a concentration of 10 uM in fluorometric assay using DiFMUP
Measured Quantity: inhibition (%)

Field: example entries. Status: answers known.
INSERT INTO results (compound, value_reported) VALUES
  ('CC(Cn1c(=O)n2n(c1=O)C(C(=O)NC(Cc1ccc3sccc(=O)c3c1)C(=O)O)C=CC2CCCC(=O)O)c1ccccc1 (centres undefined)', 15),
  ('O=C(O)CCCC1C=CC(C(=O)NC(Cc2ccc3sccc(=O)c3c2)C(=O)O)n2c(=O)n(-c3ccc(Oc4ccccc4)cc3)c(=O)n21 (centres undefined)', 20);

1. O=C(O)CCCC1C=CC(C(=O)NC(Cc2ccc3sccc(=O)c3c2)C(=O)O)n2c(=O)n(Cc3cc(F)ccc3F)c(=O)n21 (centres undefined)
2. O=C(O)CCCC1C=CC(C(=O)NC(Cc2ccc3sccc(=O)c3c2)C(=O)O)n2c(=O)n(CC3CCCCC3)c(=O)n21 (centres undefined)
From the items above, decide which of 1 and 2 has the lower inhibition reading. I would appreciate it if you answered with the label of your choice.
1

----------
# Experimental System: Receptor-type tyrosine-protein phosphatase F (Homo sapiens)
# Protocol Details: Compound was tested for inhibition of Lar tyrosine phosphatase at a concentration of 100 uM in fluorometric assay using DiFMUP
Measured Quantity: inhibition (%)

Field: example entries. Status: answers known.
INSERT INTO assay_data (molecule, measured_quantity, scale_unit, value_reported) VALUES
  ('O=C(O)CCCC1C=CC(C(=O)NC(Cc2ccc3sccc(=O)c3c2)C(=O)O)n2c(=O)n(Cc3cc(F)ccc3F)c(=O)n21 (centres undefined)', 'inhibition', '%', 50),
  ('CC(Cn1c(=O)n2n(c1=O)C(C(=O)NC(Cc1ccc3sccc(=O)c3c1)C(=O)O)C=CC2CCCC(=O)O)c1ccccc1 (centres undefined)', 'inhibition', '%', 50);

1. O=C(O)CCCC1C=CC(C(=O)NC(Cc2ccc3sccc(=O)c3c2)C(=O)O)n2c(=O)n(CC3CCCCC3)c(=O)n21 (centres undefined)
2. O=C(O)CCCC1C=CC(C(=O)NC(Cc2ccc3sccc(=O)c3c2)C(=O)O)n2c(=O)n(-c3ccc(Oc4ccccc4)cc3)c(=O)n21 (centres undefined)
Hi team, can someone confirm which has the larger inhibition: 1 or 2 ? Thanks. I would appreciate it if you answered with the label of your choice.
2
